Tested on: Aerobactin synthetase IucA (Klebsiella pneumoniae hvKP1)
Assay: Biochemical IucA enzyme inhibition primary screen of the Spectrum library (AID 1346200);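 also: 100% = wells without compound and 0% = wells lacking enzyme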
Settings: malachite green pyrophosphate, A620, at 8 µM, active compounds read low
value.type: activity remaining (%)
Write the number in % without appending the unit.

Please review the following examples before continuing.
OC[C@H]1OC([S-])[C@H](O)[C@@H](O)[C@@H]1O.[Au+] (stereo not given in full); 109
O=c1[nH]c2ccccc2n1CCCN1CCC(n2c(=O)[nH]c3cc(Cl)ccc32)CC1; 117
CC(C)[C@@H]1CC[C@@H](C)C[C@H]1O; 95.9
O=C(O)c1ccccc1Nc1cccc(C(F)(F)F)c1; 116

What activity remaining value was documented for this compound, CCCc1nn(C)c2c(=O)[nH]c(-c3cc(S(=O)(=O)N4CCN(C)CC4)ccc3OCC)nc12 ?
97

Please answer likewise for O=C(C1CCCCC1)N1CC(=O)N2CCc3ccccc3C2C1 (stereo not given)
123

Please answer likewise for NCCc1ccc(O)cc1
108

Please answer likewise for CC[C@]12C=CCN3CC[C@@]4(c5ccc(OC)cc5N(C)C4[C@@](O)(C(=O)OC)[C@@H]1OC(C)=O)[C@@H]32 (stereo not given in full)
112

Please answer likewise for CCCc1nc(C)c2c(=O)[nH]c(-c3cc(S(=O)(=O)N4CCN(CC)CC4)ccc3OCC)nn12
111

Please answer likewise for CCC(=O)O[C@]1(C(=O)CCl)[C@@H](C)CC2C3CCC4=CC(=O)C=C[C@]4(C)[C@@]3(F)[C@@H](O)C[C@@]21C (stereo not given in full)
112
